- System: barnyardgrass
- measurement.protocol: Test Example 1: foliar treatment of field
- Format: in vivo, Echinochloa crus-galli
- recorded.conditions: foliar spray, 125 g/ha, plants grown 14 days before, examined 16 days after application
readout.name: herbicidal activity (growth of barnyardgrass)

>>> assay_result("COC(=O)C1(Oc2cc(-n3c(=O)cc(C(F)(F)F)n(C)c3=O)c(F)cc2Cl)CC1")
"completely controlled"
>>> assay_result("CCOC(=O)C1(Oc2cc(-n3c(=O)cc(C(F)(F)F)n(C)c3=O)c(F)cc2Cl)CC1")
"completely controlled"
>>> assay_result("CSC(=O)C1(Oc2cc(-n3c(=O)cc(C(F)(F)F)n(C)c3=O)c(F)cc2Cl)CC1")
"completely controlled"
>>> assay_result("C=CCOC(=O)C1(Oc2cc(-n3c(=O)cc(C(F)(F)F)n(C)c3=O)c(F)cc2Cl)CC1")
"completely controlled"

Here's the next entry for you.
COC(=O)C(CC(C)C)NC(=O)C1(Oc2cc(-n3c(=O)cc(C(F)(F)F)n(C)c3=O)c(F)cc2Cl)CC1 (centres unmarked) tested on barnyardgrass gave herbicidal activity (growth of barnyardgrass): completely controlled
